Test system: IGROV1 ovarian
PROTOCOL_SUMMARY: NCI tumour cell line growth inhibition, 48 h

COMPOUND	TGI
CCOc1cccc2ccc[n+](CC)c12	> 100 µM
COc1ccc(N2C=Nn3c(nc4sc5c(c4c3=O)CCCC5)C2)cc1	> 100 µM
COC(C(=O)NCCCCNC(=O)C(OC)c1ccccc1)c1ccccc1 (stereo unspecified)	> 100 µM
COc1cc(-c2nc(-c3nc4ccccc4[nH]3)cc3c2[nH]c2ccccc23)cc(OC)c1OC	> 100 µM
O=C(O)/C(Cc1ccc([N+](=O)[O-])cc1)=N\O	> 100 µM
S=C(c1c[nH]c2ccccc12)N1CCN(Cc2ccccc2)CC1	26.2 µM
CC(C)(C)CC(C)(C)NCc1cc(C(C)(C)C)cc(CNC(C)(C)CC(C)(C)C)c1O	15.9 µM
O=C(OCc1ncc(-c2ccc(C(F)(F)F)cc2)c(NC2CCCCCC2)n1)c1c(F)c(F)c(F)c(F)c1F	7.28 µM
CN(C)C=C1C(Cl)=C(C=O)CC(C=O)=C1Cl	33 µM
CC(=O)[CH-]C(=O)c1ccccc1.CC(=O)[CH-]C(=O)c1ccccc1.CCOCC[O-].CCOCC[O-].[Ti+4]	> 100 µM
COc1ccc(-c2c3c(n(C4OC(COC(C)=O)C(OC(C)=O)C(OC(C)=O)C4OC(C)=O)c(=S)c2C#N)CC(C)(C)CC3=O)cc1 (stereo unspecified)	> 100 µM
OCC(O)c1nc2ccc3[nH]ncc3c2c2c1CCCC2 (stereo unspecified)	> 50 µM
Cc1c(C(=O)/C=C/c2ccccc2O)c(=O)n(-c2ccccc2)n1C	> 100 µM
O=C(O)CC1NCc2cc3ccccc3nc21 (stereo unspecified)	> 100 µM
c1c[nH]c(C23C4C5C6C4C2C6C53)n1 (stereo unspecified)	> 100 µM
Nc1ccc(C(=O)c2cn(CCN3CCOCC3)c3ccccc23)c2ccccc12	52.3 µM
